- assay_overview: CC50 assay (CellTiter-Glo) in Huh-7 HCV replicon cells
- Format: cell-based, human
- condition_set: human, 50% cytostatic concentration
measured_metric: CC50 at 3 days

Known CC50 at 3 days results, listed for orientation:
# smiles_record, CC50 at 3 days
data = [
    ("CCOc1nc(N)nc2ccc(-c3ccc(NC(=O)[C@H](C)N)c(OC)c3)nc12", "> 20 µM"),
    ("CC(C)Oc1nc(N)nc2ccc(-c3ccc(C(=O)NC4CC4)c(Cl)c3)nc12", "> 20 µM"),
    ("CCOc1nc(N)nc2ccc(-c3cccc(NS(=O)(=O)CC)c3)nc12", "> 20 µM"),
    ("CCOc1nc(N)nc2ccc(-c3ccc(NC(=O)C4(O)CC4)cc3)nc12", "> 20 µM"),
    ("Nc1nc(O[C@H]2CCOC2)c2nc(-c3ccc(C(=O)NCC(F)(F)F)cc3)ccc2n1", "10 to 20 µM"),
]

Lookup: What value of measured CC50 at 3 days is listed for CCOc1nc(N)nc2ccc(-c3ncc(N)s3)nc12 ?
Found: 10 to 20 µM

Lookup: One more compound: CCC(=O)Nc1ccc(-c2ccc3nc(N)nc(N4CCS(=O)(=O)CC4)c3n2)cc1
Found: < 10 µM

Lookup: One more compound: CCCCNC(=O)c1ccc(-c2ccc3nc(N)nc(OCC)c3n2)cc1
Found: > 20 µM

Lookup: One more compound: CCOc1nc(N)nc2ccc(-c3ccc(NC(=O)C4(N)CC4)cc3)nc12
Found: > 20 µM

Lookup: One more compound: CS(=O)(=O)CCNc1nc(N)nc2ccc(-c3ccc(C(=O)NC4CC4)cc3)nc12
Found: > 20 µM
